Assay: Biodistribution in Daudi xenograft bearing mice
Type: in vivo, mouse
Details: female, CB-17 SCID, mouse, pancreas, iv, with AMD3100, 50 µg per animal, coinjected (CXCR4 competition), total radioactivity, 1h p.i., coinjection of 50 µg AMD3100/animal; n=1; read-out: Biodistribution pancreas, + AMD3100
Experimental: The biodistribution of selected compounds was investigated in Daudi (human B-cell lymphoma) xenograft bearing female CB-17 SCID mice (6-8 weeks, Charles River, Sulzfeld, Germany), [29]. […] Animals (n=4-5 per group) were injected intravenously with 5-10 MBq (0.08-0.11 nmol peptide per mouse) of the respective ^68Ga- and^ 177Lu-labeled CXCR4 ligands in PBS (100 µL) into the tail vein under isoflurane anesthesia. CXCR4-specificity of binding was determined by coinjection of 50 µg AMD3100 per mouse. […]
Where a SMILES comes first, the peptide text is derived from it. Side-chain parts run from the residue outwards. [ ]: non-standard residue; d: D form. The star is where a group is joined. DOTA = O=C(O)CN1CCN(CC(=O)O)CCN(CC(=O)*)CCN(CC(=O)O)CC1; 2Nal = N[C@@H](Cc1ccc2ccccc2c1)C(=O)O; dNMeOrn = CN[C@H](CCCN)C(=O)O; 4Abz = Nc1ccc(C(=O)O)cc1
TEST READOUT: tissue uptake at 1 h (%ID/g)
Return type: number; implicit unit %ID/g.

Qu. What value of tissue uptake at 1 h has been recorded for this entry: C[C@@H](NC(=O)[C@@H](CCCNC(=N)N)NC(=O)CN1CCN(CC(=O)O)CCN(CC(=O)O)CCN(CC(=O)O)CC1)C(=O)Nc1ccc(C(=O)NCCC[C@@H]2C(=O)N[C@@H](CCCNC(=N)N)C(=O)N[C@@H](Cc3ccc4ccccc4c3)C(=O)NCC(=O)N[C@H](Cc3ccc(O)cc3)C(=O)N2C)cc1 [[^177Lu]DOTA-r-a-ABA-CPCR4, metal not drawn] (cyclo([2Nal]G[dY][dNMeOrn]([4Abz-dA-dR-DOTA])R))
Ans. 0.61

Origin of measurements: paper PMC7381729
